- protocol.summary: yeast display, Sf9 membrane polyspecificity reagent, FACS + sequencing; frameworks hold sequencing errors

| sequence.record | polyreactivity (PSR sort gate) |
| --- | --- |
| QVQLVESGGGLVQAGGSLRLSCAASGRINEYYAMGWYRQAPGKERELVAAISSGGSTYYADSVKGRFTISRDNAKNTVYFQMNSLKPEDTAVYYCAAVYSSYGRRYNSWGQGTQVTVSS | high polyreactivity |
| QVQLVESGGGLVQAGGSLRLSCAASGSTFSVYGMGWYRQAPGKERELVAAISGSGSRTYYADSVKGRFTISRDNAKNTVYLQMNSLKPEDTAVYYCAAVRRLLQGRTMYYWGQGTQVTVSS | high polyreactivity |

---

- protocol.summary: yeast display, Sf9 membrane polyspecificity reagent, FACS + sequencing; frameworks hold sequencing errors
readout.label: polyreactivity (PSR sort gate)

Look over these answered cases.
| sequence.record | experimental.result |
| --- | --- |
| QVQLVESGGGLVQAGGSLRLSCAASGGTFLGNAMGWYRPAPGKERELVADITSGGSTNYADSVKGRFTISRDNAKNTVYLQMNSLKPEDTAVYYCNAEYSTSTVWEYDYWGQGTQVTVSS | low polyreactivity |
| QVHLVESWGGLVQAGGSLRLSCAASGSIFYYYAMGWYRLAPGKERELVAAITSGGSTYYADSVKGRFTISRDNAKNTVYLQMNSLKPEDTAVYYCAAVFYAAYLRYVWYSYDYWGQGTQVTVSS | low polyreactivity |
| QVQLVESCGGLVQAGGSLRLSCASSGRTIDSKAMGWYRQAPGKERELVAAISWSGGSTYYADSVKGRFTISRDNAKNTVYLQMNSLKPEDTAVYYCNRLGRHAPATRYGYWGQGTQVTVSS | high polyreactivity |
| QVQLVESGGGLVQAGGSLRLSCAASGRTFRWYAMGWYRQAPGKERELVASITWSGGSTYYADSVKGRFTISRDNAKNSVYLQMNSLKPEDTAVYYCNRVLGVSLYEGNYWGQGTQVTVSS | high polyreactivity |

Continue with the sequence presented below.
In: Consider the sequence QVQLVESGGGLVQAGGSLRLSCAASGYIIDNNSMAWYRQAPGKERELVASNTNSAGSTSYADSVKGRFTISRDNAKNTVYLQMNSLKPEDTAVYYCAAKRYHYFFPYSRRGAYGYWGQGTQVTVSS and give its measured polyreactivity (PSR sort gate).
Out: high polyreactivity

---

- protocol.summary: yeast display, Sf9 membrane polyspecificity reagent, FACS + sequencing; frameworks hold sequencing errors
readout.label: polyreactivity (PSR sort gate)

Observe how each entry below is paired with its result.
| sequence.record | polyreactivity (PSR sort gate) |
| --- | --- |
| QVQLVESGGGLVQAGGSLRLSCAASGSTFYTNAMGWYRQAPGKERELVASISSGGRTYYADSVKGRFTISRDNAKNTVYLQMNSLKPEDTAVYYCAKRAVLARGDYWGQGTQVTVSS | low polyreactivity |
| QVQLVESGGGLVQAGGSLRLSSAASGGIFRIYGMGSYRQAPGKERELVADISIGGRTTYADSVKGRFTISRDNAKNTVYLQMHSLKPEDTAVYYCKTPYWYRIGQRLAWYDYWGQGTQVTVSS | low polyreactivity |
| QVQLVESGGGLVQAGGSLRLSCAASGLTFDYYAMGWYRQAPGKERELVAAISIGGSTNYADSVKGRFTISRDNAKNNVYLQMNSLKPEDTAVYYCAAQGYLRLRTHFNYWGQGTQVTVSS | low polyreactivity |
| QVQLVESGGGLVQAGGSLRLSCAAYGSIFRVYAMGWYRQAPGKEREFVAAITRRGTRTYYADSVKGRFTISRDNAKNTVYLQMNSLKPEDTAVYYCAAYFTDGLFEYWGQGTQVTVSS | low polyreactivity |
| QVQLVESGGGLVQAGGSLRLSCAASGSIFVYNAMGWYRQAPGKERELVAAISTSGGRTYYADSVKGRFTISRDNAKNTVYLQMNSLKPEDTAVYYCNALGYWRRVVDGFDYWGQGTQVTVSS | high polyreactivity |
| QVQLVESGGGLVQAGGSLRLSCAASGIIFGVYAMGWYRQAPGKERELVAAIDGNGSSTYYADSVKGRFTISRDNAKNSVYLQMNSLKPEDTAVYYCNKDVARYPYGKFDYWGQGTQVTVSS | low polyreactivity |

In: I am curious: what polyreactivity (PSR sort gate) value has been reported for QVQLVESGGGLVQAGGSLRLICAASGITFPINTKGWYRQAPGKERELVAGIDWTGGSTYYADSVKGRFTISRDNAKNTVYLQMNSLKPEDTAVYYCAAEFFREGSPRAGSKMDYWGQGTQVTVSS ?
Out: low polyreactivity

In: polyreactivity (PSR sort gate) lookup needed for QVKLVESGGGLVQAGGSLRLSCADSGFTFSSNGMCWYRPAPGKETELVAAITRRGGSTYYADSVKGRFTISRDNAKNTVYLQMNSLKPEDTAVYYCAKQLWDPKYDYWGQGTQVTVSS , thanks.
Out: high polyreactivity

In: Entry QVQLVESGGGLVQAGGSLRLSCAASARTFTRYAIGWYRQAPGKERELVAAISFSVGSTYYADSVKGRFTISRDNAKYSVYLQMNRLKPEDTAVYYCARPSGDAWEGPRMDYWGQCTQVTVSS : reported polyreactivity (PSR sort gate) = ?
Out: low polyreactivity

In: Returns the measured polyreactivity (PSR sort gate) for the input sequence. Input: QVQLVESGGGLVQAGGSLRLSCAASGRTFGVYVMGWYRQAPGKERELVAAIRIGDSTNYADSVKGRFTISRDNAKNTVYLQMNSLKPEDTAVYYCNAYRVRYTVDSVFYGYDYWGQGTQVTVSS
Out: high polyreactivity

In: Report polyreactivity (PSR sort gate) for QVQLVESGGGLVQAGGSLRLSCAASGFTFYSYDMGWYRQAPGKERELVAVITERGSSTYYADSVKGRFTISRDNAKNTVYLQMNSLKPEDTAVYYCAAYSEYYGVYYWGQGTQVTVSS please.
Out: low polyreactivity

Data provenance is the nanobody polyreactivity screen of Harvey et al. (2022).
